target: LK35.2-hPD-L1 cells / PE-labeled PD-1-Ig (Homo sapiens, UniProt Q9NZQ7); construct: expressed in transfected cells; host or cells: LK35.2 mouse B cell line; experiment: LK35.2-hPD-L1 cell binding high-content screening assay; type: cell-based; conditions: cell binding assay, cell line not given; cluster symbol; read-out: CBA IC50 cluster
Sequence (Q9NZQ7 19-290): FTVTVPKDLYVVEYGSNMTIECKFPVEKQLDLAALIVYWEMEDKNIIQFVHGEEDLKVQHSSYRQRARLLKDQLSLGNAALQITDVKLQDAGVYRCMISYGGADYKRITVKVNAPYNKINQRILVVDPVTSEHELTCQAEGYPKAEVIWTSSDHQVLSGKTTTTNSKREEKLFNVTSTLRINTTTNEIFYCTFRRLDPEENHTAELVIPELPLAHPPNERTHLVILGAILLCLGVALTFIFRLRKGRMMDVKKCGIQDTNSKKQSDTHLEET
Positions of bridges follow the written chain, without caps; N, C: chain ends. Non-standard residues stand in square brackets, D forms with d. Residues, ends and D or L forms follow the SMILES beside them. ξ: configuration not given here. NMeNle = CCCC[C@H](NC)C(=O)O; NMeM = CN[C@@H](CCSC)C(=O)O; NMeA = CN[C@@H](C)C(=O)O; Dap = NC[C@H](N)C(=O)O; ξC = NC(CS)C(=O)O
endpoint: IC50

Reported IC50 of CCCC[C@H]1C(=O)N[C@@H](CCCNC(=N)N)C(=O)NC(C(=O)NCC(N)=O)CSCC(=O)N[C@@H](Cc2ccc(O)cc2)C(=O)N(C)[C@@H](C)C(=O)N[C@@H](CC(N)=O)C(=O)N2CCC[C@H]2C(=O)N[C@@H](CN)C(=O)N[C@@H](CC(C)C)C(=O)N2CCC[C@H]2C(=O)N[C@@H](Cc2c[nH]c3ccccc23)C(=O)N[C@@H](CO)C(=O)N[C@@H](Cc2c[nH]c3ccccc23)C(=O)N(C)[C@@H](CCSC)C(=O)N1C (stereo partly shown) [Example 9097] ({CH2CO}-Y[NMeA]NP[Dap]LPWSW[NMeM][NMeNle]R[ξC]G-NH2; thioether N-14) : 4.78 to 72.9 nM

----------
target: Human PD-L1/PD-1 (Homo sapiens); construct: made in house; host or cells: HEK293T; experiment: HTRF PD-1-Ig/PD-L1-His binding assay (human PD-L1); settings: cluster symbol; read-out: HTRF IC50 cluster
Positions of bridges follow the written chain, without caps; N, C: chain ends. Non-standard residues stand in square brackets, D forms with d. Residues, ends and D or L forms follow the SMILES beside them. Hyp = O=C(O)[C@@H]1C[C@@H](O)CN1; NMeNle = CCCC[C@H](NC)C(=O)O; NMeA = CN[C@@H](C)C(=O)O; Dab = NCC[C@H](N)C(=O)O
endpoint: IC50

Reported IC50 of CCCC[C@H]1C(=O)N(C)[C@@H](CCCC)C(=O)N[C@@H](CO)C(=O)N[C@H](C(=O)NCC(N)=O)CSCC(=O)N[C@@H](Cc2ccc(O)cc2)C(=O)N(C)[C@@H](C)C(=O)N[C@@H](CCN)C(=O)N2CCC[C@H]2C(=O)N[C@@H](CO)C(=O)N[C@@H](CCC(=O)O)C(=O)N2C[C@H](O)C[C@H]2C(=O)N[C@@H](Cc2c[nH]c3ccccc23)C(=O)N[C@@H](CO)C(=O)N[C@@H](Cc2c[nH]c3ccccc23)C(=O)N1C [Example 5119] ({CH2CO}-Y[NMeA][Dab]PSE[Hyp]WSW[NMeNle][NMeNle]SCG-NH2; thioether N-14) : 0.385 to 6.74 nM

----------
Field: pIC50. Provide a value for each of the compounds that follow.
biological target: LK35.2-hPD-L1 cells / PE-labeled PD-1-Ig (Homo sapiens, UniProt Q9NZQ7); construct: expressed in transfected cells; host or cells: LK35.2 mouse B cell line; test: LK35.2-hPD-L1 cell binding high-content screening assay; assay type: cell-based; settings: cluster symbol; cell line of CBA not given (LK35.2-hPD-L1 or 293T-hPD-L1); read-out: CBA IC50 cluster
pIC50: −log10 of the molar value. Starred links: 1 amine or outer side, 2 acyl side, 3 side chain; linkers in the order of their positions; H or OH if unused. Positions of bridges follow the written chain, without caps; N, C: chain ends. Non-standard residues stand in square brackets, D forms with d. Residues, ends and D or L forms follow the SMILES beside them. X12 = O=C([C@H](Cc1cc(Cl)c(F)c(Cl)c1)N[*:1])[*:2]; NMeF = CN[C@@H](Cc1ccccc1)C(=O)O; hPhe = N[C@@H](CCc1ccccc1)C(=O)O; NMeNle = CCCC[C@H](NC)C(=O)O; NMeA = CN[C@@H](C)C(=O)O; Dab = NCC[C@H](N)C(=O)O; Sar = CNCC(=O)O

Reported pIC50 of CCCC[C@H]1C(=O)N(C)[C@@H](CCCC)C(=O)N[C@@H](CCCNC(=N)N)C(=O)N[C@H](C(=O)NCC(N)=O)CSCC(=O)N[C@@H](Cc2ccccc2)C(=O)N(C)[C@@H](C)C(=O)N[C@@H](CC(N)=O)C(=O)N2CCC[C@H]2C(=O)N[C@@H](CCN)C(=O)N[C@@H](CC(C)C)C(=O)N(C)CC(=O)N[C@@H](Cc2c[nH]c3ccccc23)C(=O)N[C@@H](CO)C(=O)N[C@@H](Cc2c[nH]c3ccccc23)C(=O)N1C [Example 1062] ({CH2CO}-F[NMeA]NP[Dab]L[Sar]WSW[NMeNle][NMeNle]RCG-NH2; thioether N-14) : 7.14 to 8.32

Reported pIC50 of CCCC[C@H]1C(=O)N(C)[C@@H](CCCC)C(=O)N[C@@H](CCCN)C(=O)N[C@H](C(=O)NCC(N)=O)CSCC(=O)N[C@@H](Cc2ccc(O)cc2)C(=O)N2CC(F)(F)C[C@H]2C(=O)N[C@@H](CC(N)=O)C(=O)N2CCC[C@H]2C(=O)N[C@@H](Cc2cnc[nH]2)C(=O)N[C@@H](CC(C)C)C(=O)N2C[C@H](O)C[C@H]2C(=O)N[C@@H](Cc2c[nH]c3ccccc23)C(=O)N[C@@H](CO)C(=O)N[C@@H](Cc2c[nH]c3ccccc23)C(=O)N1C : 8.33 to 9.80

Reported pIC50 of CCCC[C@H]1C(=O)N(C)CC(=O)N[C@@H](CC(=O)O)C(=O)N[C@@H](C(C)C)C(=O)N(C)[C@@H](Cc2ccccc2)C(=O)N[C@@H](Cc2ccc(O)cc2)C(=O)N(C)CC(=O)N[C@@H](Cc2c[nH]c3ccccc23)C(=O)N[C@@H](Cc2ccc(O)cc2)C(=O)N[C@@H](CC(C)C)C(=O)N[C@H](C(=O)NCC(N)=O)CSCC(=O)N[C@@H](Cc2cc(Cl)c(F)c(Cl)c2)C(=O)N(C)[C@@H](Cc2ccccc2)C(=O)N1C [Example 3185] ({CH2CO}-[X12][NMeF][NMeNle][Sar]DV[NMeF]Y[Sar]WYLCG-NH2; thioether N-13) : 7.14 to 8.32

Reported pIC50 of CCCC[C@H]1C(=O)N(C)CC(=O)N[C@@H](CC(=O)O)C(=O)N[C@@H](C(C)C)C(=O)N(C)[C@@H](Cc2ccccc2)C(=O)N[C@@H](Cc2ccc(O)cc2)C(=O)N(C)CC(=O)N[C@@H](Cc2c[nH]c3ccccc23)C(=O)N[C@@H](Cc2ccc(O)cc2)C(=O)N[C@@H](CC(C)C)C(=O)N[C@H](C(=O)NCC(N)=O)CSCC(=O)N[C@@H](CCc2ccccc2)C(=O)N(C)[C@@H](Cc2ccccc2)C(=O)N1C [Example 3082] ({CH2CO}-[hPhe][NMeF][NMeNle][Sar]DV[NMeF]Y[Sar]WYLCG-NH2; thioether N-13) : < 7.13

----------
target: Human PD-L1/PD-1 (Homo sapiens, UniProt Q9NZQ7); construct: made in house; host or cells: HEK293T; assay: HTRF PD-1-Ig/PD-L1-His binding assay (human PD-L1); conditions: Table 8, Compound No. 1 variant macrocyclic peptides; read-out: HTRF Human PD-L1/PD-1 Binding Assay IC50
Sequence (Q9NZQ7 with tags, fused parts or gaps): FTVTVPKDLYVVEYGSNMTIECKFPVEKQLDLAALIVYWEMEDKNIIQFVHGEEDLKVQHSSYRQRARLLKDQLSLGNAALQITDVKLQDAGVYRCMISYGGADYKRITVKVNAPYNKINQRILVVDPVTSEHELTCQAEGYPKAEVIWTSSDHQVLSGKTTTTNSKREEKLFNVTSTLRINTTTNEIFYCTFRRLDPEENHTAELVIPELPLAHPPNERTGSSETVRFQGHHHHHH
Positions of bridges follow the written chain, without caps; N, C: chain ends. Non-standard residues stand in square brackets, D forms with d. Residues, ends and D or L forms follow the SMILES beside them. 4Pal = N[C@@H](Cc1ccncc1)C(=O)O; NMeNle = CCCC[C@H](NC)C(=O)O; NMeA = CN[C@@H](C)C(=O)O; Sar = CNCC(=O)O
endpoint: pIC50
Conceptually, pIC50 converts a concentration in mol/L into minus its log10.

Reported pIC50 of CCCC[C@H]1C(=O)N(C)[C@@H](CCCC)C(=O)N[C@@H](CCCNC(=N)N)C(=O)N[C@H](C(=O)NCC(N)=O)CSCC(=O)N[C@@H](Cc2ccncc2)C(=O)N(C)[C@@H](C)C(=O)N[C@@H](CC(N)=O)C(=O)N2CCC[C@H]2C(=O)N[C@@H](Cc2cnc[nH]2)C(=O)N[C@@H](CC(C)C)C(=O)N(C)CC(=O)N[C@@H](Cc2c[nH]c3ccccc23)C(=O)N[C@@H](CO)C(=O)N[C@@H](Cc2c[nH]c3ccccc23)C(=O)N1C [Compound No. 39] ({CH2CO}-[4Pal][NMeA]NPHL[Sar]WSW[NMeNle][NMeNle]RCG-NH2; thioether N-14) : 7.48
